target: Acetylcholinesterase (Homo sapiens); assay: Acetylcholinesterase (AChE) small molecule antagonists: enzyme-based qHTS assay (AID 1347397); details: AChE enzyme activity inhibition; series mostly up to 115 µM; further: on the % scale 0 is the no-effect control and ±100 the full control effect; nearly all actives have a fitted effect of over 55% in size
Active and inactive are the calls of the source. The call rests on the fitted dose curve.
Thanks in advance; please answer with one of these: active, inactive

Take a look at these entries with their results.
molecule: O=[N+]([O-])c1cc(C(F)(F)F)cc([N+](=O)[O-])c1Cl
assigned class: inactive
--
molecule: CCCCOC(=O)c1ccccc1C(=O)OCc1ccccc1
assigned class: inactive
--
molecule: COC(=O)C(C)N(C(=O)Cc1ccccc1)c1c(C)cccc1C (centres undefined)
assigned class: inactive

input: What did this assay record as the result for CCCCNP(N)(N)=S ?
output: inactive

input: What did this assay record as the result for CC(C)O.CC(C)O.OCCN(CCO)CCO.OCCN(CCO)CCO.[Ti] ?
output: inactive

input: What did this assay record as the result for CC1Sc2c(C(=O)O)c(=O)c3cc(F)c(N4CCNCC4)cc3n21 (centres undefined) ?
output: inactive

input: What did this assay record as the result for Cn1sc(Cl)cc1=O ?
output: inactive

input: What did this assay record as the result for COC(=O)C(Cl)C(=O)OC ?
output: inactive

* * *

experiment: qHTS assay to identify small molecule antagonists of the estrogen related receptor (ERR) signaling pathway from Tox21 library (AID 1224848); conditions: ERR reporter cell line, luciferase antagonist mode, 18 h; series mostly up to 92.4 µM; further: nearly all actives have a fitted effect of over 50% in size
Results filed as inconclusive are left out. Active and inactive are the calls of the source. Calls come from the whole dose curve; as a rule, active = well fitted inhibition curve with a large enough effect in the repeat runs; inconclusive = weak or mixed curves; inactive = no such curve, though single readings can be large or run the other way.
Thanks in advance; please answer with one of these: label 1 for active, label 0 for inactive

Take a look at these entries with their results.
molecule: C=CC(=O)OCC(C)C
assigned class: label 0
--
molecule: COc1nn(C(=O)NS(=O)(=O)c2ccccc2OC(F)(F)F)c(=O)n1C
assigned class: label 0
--
molecule: CCO[C@H]1O[C@@H]2OC3(C)CC[C@H]4[C@H](C)CC[C@@H]([C@H]1C)[C@@]24OO3
assigned class: label 1
--
molecule: CC(Cl)C(C)Cl (stereo unspecified)
assigned class: label 0
--
molecule: COCCOCCO
assigned class: label 0

Now consider the entry below.
input: What did this assay record as the result for COP(=O)(OC)O/C(=C/Cl)c1cc(Cl)c(Cl)cc1Cl ?
output: label 1

* * *

molecular target: Estrogen receptor (Homo sapiens) (UniProt P03372); test: qHTS assay to identify small molecule antagonists of the estrogen receptor alpha (ER-alpha) signaling pathway using the BG1 cell line in the presence of 0.1 nM 17-beta-estradiol (AID 1259244); conditions: VM7Luc4E2 (BG1) ERE-luciferase, antagonist mode, 0.1 nM E2, 22 h; series mostly up to 92.4 µM; further: nearly all actives have a fitted effect of over 50% in size
Sequence (P03372 whole entry, looked up): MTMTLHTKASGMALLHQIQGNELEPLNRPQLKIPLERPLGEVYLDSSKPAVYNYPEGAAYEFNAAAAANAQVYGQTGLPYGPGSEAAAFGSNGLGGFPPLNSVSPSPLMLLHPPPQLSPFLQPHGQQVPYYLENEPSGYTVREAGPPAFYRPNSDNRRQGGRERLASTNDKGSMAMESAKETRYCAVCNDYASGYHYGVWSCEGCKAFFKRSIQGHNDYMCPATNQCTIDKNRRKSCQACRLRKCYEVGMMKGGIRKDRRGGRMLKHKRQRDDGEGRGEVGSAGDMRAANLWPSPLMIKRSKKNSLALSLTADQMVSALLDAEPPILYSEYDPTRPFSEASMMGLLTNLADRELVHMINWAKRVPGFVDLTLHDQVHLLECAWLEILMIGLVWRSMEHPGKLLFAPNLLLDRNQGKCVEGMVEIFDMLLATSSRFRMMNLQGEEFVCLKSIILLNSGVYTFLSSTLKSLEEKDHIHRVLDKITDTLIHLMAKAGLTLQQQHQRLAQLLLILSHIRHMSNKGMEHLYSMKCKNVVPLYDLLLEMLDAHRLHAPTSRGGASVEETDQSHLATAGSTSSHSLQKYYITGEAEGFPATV
Results filed as inconclusive are left out. The source made the active and inactive calls. Calls come from the whole dose curve; as a rule, active = well fitted inhibition curve with a large enough effect in the repeat runs; inconclusive = weak or mixed curves; inactive = no such curve, though single readings can be large or run the other way.
Thanks in advance; please answer with one of these: active, inactive

Take a look at these entries with their results.
compound: Clc1cccc(SC2CCNCC2)n1
assigned class: inactive
--
compound: COc1c(C(C)(C)C)cc([N+](=O)[O-])c(C)c1[N+](=O)[O-]
assigned class: inactive
--
compound: COC(=O)c1cncn1C(C)c1ccccc1 (configuration not stated)
assigned class: inactive
--
compound: OCCCBr
assigned class: inactive

input: What did this assay record as the result for C=CC(=O)OCC(C)O (configuration not stated) ?
output: inactive

input: What did this assay record as the result for C=CC[C@]1(O)CC[C@H]2[C@@H]3CCC4=CC(=O)CCC4=C3C=C[C@@]21C ?
output: active

input: What did this assay record as the result for CN1C(=O)C(O)N=C(c2ccccc2)c2cc(Cl)ccc21 (configuration not stated) ?
output: active

* * *

experiment: qHTS assay to identify small molecule agonists of H2AX (AID 1224845); details: CHO-K1 phospho-H2AX Ser139 HTRF, 3 h; series mostly up to 154 µM
Inconclusive results are not listed. Active and inactive are the calls of the source. The call rests on the fitted dose curve; in most records, active means well fitted activation curve with a large enough effect in the signal ratio in the repeat runs (not every such curve was filed as active); inconclusive means weak or mixed curves; inactive means flat fitted curve, though single readings scatter; the % refers to the signal ratio.
Thanks in advance; please answer with one of these: active, inactive

compound: CCCN(CCC)c1c([N+](=O)[O-])cc(S(C)(=O)=O)cc1[N+](=O)[O-]
assigned class: inactive

input: What did this assay record as the result for Cl/C=C\C[N+]12CN3CN(CN(C3)C1)C2 ?
output: inactive

input: What did this assay record as the result for ClC=C(Cl)Cl ?
output: inactive

input: What did this assay record as the result for Clc1ccc(C(OCCN2CCCCC2)c2ccccc2)cc1 (stereo not given) ?
output: inactive

input: What did this assay record as the result for O=C(C(Cl)(Cl)Cl)C(Cl)(Cl)Cl ?
output: inactive

input: What did this assay record as the result for C=COC(C)=O ?
output: inactive

input: What did this assay record as the result for Cn1cc[n+](C)c1 (tested in a mixture with another compound) ?
output: inactive

input: What did this assay record as the result for BrCC(Br)C1CCC(Br)C(Br)C1 (stereo not given) ?
output: inactive

input: What did this assay record as the result for CCCCN(N=O)C(=N)N[N+](=O)[O-] ?
output: active

input: What did this assay record as the result for COCC(C)N(C(=O)CCl)c1c(C)csc1C (stereo not given) ?
output: inactive

* * *

experiment: qHTS assay to identify small molecule agonists of the sonic hedgehog signaling (Shh) pathway - cell viability counter screen (AID 1259366); settings: NIH/3T3 Gli1-Luc viability, CellTiter-Fluor, 24 h; series mostly up to 92.4 µM; further: nearly all actives have a fitted effect of over 50% in size
Inconclusive results are not listed. Activity calls are given as the source filed them. Calls follow the shape of the dose curve; as a rule, active = well fitted cell-killing curve with a large enough effect in the repeat runs; inconclusive = weak or mixed curves, or effect the other way; inactive = flat fitted curve, though single readings scatter.
Thanks in advance; please answer with one of these: yes (1) (active), no (0) (inactive)

Take a look at these entries with their results.
compound: O=C(N[C@H](c1ccccc1)[C@@H]1CN2CCC1CC2)c1c(Cl)ccc(C(F)(F)F)c1Cl
assigned class: yes (1)
--
compound: O=C(CCl)c1ccc(Cl)cc1Cl
assigned class: yes (1)
--
compound: C=CCCl
assigned class: no (0)
--
compound: Clc1cc(Cl)c(Cl)c(Cl)c1
assigned class: no (0)
--
compound: O=NN1CCCCCC1
assigned class: no (0)

input: What did this assay record as the result for Cn1cc[n+](C)c1 (tested in a mixture with another compound) ?
output: no (0)

input: What did this assay record as the result for O=[N+]([O-])c1cc(C(F)(F)F)cc([N+](=O)[O-])c1Cl ?
output: yes (1)

input: What did this assay record as the result for CC(C)N(C(=O)COc1nnc(C(F)(F)F)s1)c1ccc(F)cc1 ?
output: no (0)

input: What did this assay record as the result for Cl/C=C\Cl ?
output: no (0)

input: What did this assay record as the result for S=C=NCc1ccccc1 ?
output: no (0)

input: What did this assay record as the result for Cc1ccccc1C(=O)Nc1cccc(OC(C)C)c1 ?
output: no (0)

* * *

assay: qHTS assay to identify small molecule antagonists of the retinoic acid receptor (RAR) signaling pathway (AID 1159552; further: nearly all actives have a fitted effect of over 50% in size); conditions: C3RL4 RARE luciferase reporter, retinol-stimulated, 6 h; series mostly up to 92.4 µM
Inconclusive results are not listed. The source made the active and inactive calls. The call rests on the fitted dose curve; in most records, active means well fitted inhibition curve with a large enough effect in the repeat runs; inconclusive means weak or mixed curves, or effect the other way; inactive means no such curve, though single readings can be large or run the other way.
Thanks in advance; please answer with one of these: active, inactive

Take a look at these entries with their results.
molecule: CC(C)N(CCC(C(N)=O)(c1ccccc1)c1ccccn1)C(C)C (stereo unspecified)
assigned class: inactive
--
molecule: COc1c(C(C)(C)C)cc([N+](=O)[O-])c(C)c1[N+](=O)[O-]
assigned class: inactive
--
molecule: CC(=O)NC1CCSC1=O (stereo unspecified)
assigned class: inactive

input: What did this assay record as the result for COc1ccc(-c2ccccc2)cc1NNC(=O)OC(C)C ?
output: inactive

input: What did this assay record as the result for O=C(Nc1ccccc1)Nc1cnns1 ?
output: inactive

input: What did this assay record as the result for CCBr ?
output: inactive

input: What did this assay record as the result for CCOC(=O)[C@]1(c2ccccc2)Oc2ccccc2[C@@H]1N ?
output: inactive

input: What did this assay record as the result for COC(C)(C)CCC[C@H](C)C/C=C/C(C)=C/C(=O)OC(C)C ?
output: inactive

input: What did this assay record as the result for Clc1cc(C(Cl)(Cl)Cl)cnc1Cl ?
output: inactive

input: What did this assay record as the result for COc1nn(C(=O)NS(=O)(=O)c2ccccc2OC(F)(F)F)c(=O)n1C ?
output: inactive

input: What did this assay record as the result for CCCCOC(=O)c1ccccc1C(=O)OCc1ccccc1 ?
output: inactive

input: What did this assay record as the result for CCOC(=O)C(Cl)C(C)=O (stereo unspecified) ?
output: inactive

input: What did this assay record as the result for CCOC(=O)CBr ?
output: inactive

input: What did this assay record as the result for COc1cc(Cl)c(OC)cc1Cl ?
output: inactive

input: What did this assay record as the result for COc1cc(CC(C)N)cc2c1OCO2 (stereo unspecified) ?
output: inactive

input: What did this assay record as the result for COP(=O)(OC)O/C(=C/Cl)c1cc(Cl)c(Cl)cc1Cl ?
output: active

input: What did this assay record as the result for COC(=O)C(Br)CBr (stereo unspecified) ?
output: inactive
